The measurements presented in this section are drawn from patent US4638070A.

- protocol-notes: Acute toxicity, oral, LD50 (Litchfield and Wilcoxon)
- test-parameters: mouse, in vivo, fasted male mice, confidence limits p=95% in brackets
property-name: LD50 (mg/kg)
Give a bare numeral; the unit mg/kg is implied.

Req: Suppose we examine the compound CC(NCCCCc1ccccc1)C(O)c1ccc2c(c1)CCO2 (centres unmarked) [No 35] ; what LD50 value has been reported?
Resp: 430

Req: What would you report for CC1Cc2cc(C(O)C(C)NCCCCc3ccccc3)ccc2O1 (centres unmarked) [No 70] ?
Resp: 285

Req: What would you report for CC(NCCOCc1ccccc1)C(O)c1ccc2c(c1)CCCS2 (centres unmarked) [No 46] ?
Resp: 4000

Req: What would you report for CC(=O)Nc1ccc(OCCNC(C)C(O)c2ccc3c(c2)CCS3)cc1 (centres unmarked) [No 86] ?
Resp: 1420

====

- System: femoral artery
- protocol-notes: Vasodilator activity, femoral artery (technique of perfused paw)
- Type: in vivo
- Set-up: key: O: no action; +: slight activity; ++: effect equal to half the effect of papaverine; +++: effect equal to that of papaverine; ++++: effect higher than that of papaverine
- test-parameters: intra-arterial, 30 mg/kg, anaesthetized dog, vs papaverine at same dose
property-name: VASODILATOR ACTIVITY

Illustrative cases are given below, each with its answer.
In [3]: df
Out[3]:
                                   compound  obs_value
0  CC(NCCOc1ccc(C(C)(C)C)cc1)C(O)c1ccc2c(c1)CCCS2 (centres unmarked) [No 107]        +++
1  CC(NCCCc1ccc(Cl)cc1)C(O)c1ccc2c(c1)CCCS2 (centres unmarked) [No 78]       ++++
2  CC1Cc2cc(C(O)C(C)NCCSc3ccccc3)ccc2S1 (centres unmarked) [No 106]        +++
3  CCCCOCCCNC(C)C(O)c1ccc2c(c1)CC(C)O2 (centres unmarked) [No 74]         ++

Req: Suppose we examine the compound CCC(=O)c1ccc(OCCNC(C)C(O)c2ccc3c(c2)CC(C)S3)cc1 (centres unmarked) [No 116] ; what VASODILATOR ACTIVITY value has been reported?
Resp: ++

====

- protocol-notes: Acute toxicity, oral, LD50 (Litchfield and Wilcoxon)
- test-parameters: mouse, in vivo, fasted male mice, confidence limits p=95% in brackets
property-name: LD50

Req: Suppose we examine the molecule CC1Cc2cc(C(O)C(C)NCCSc3ccccc3)ccc2S1 (stereo not drawn) [No 106] ; what LD50 value has been reported?
Resp: > 4000 mg/kg

Req: What would you report for CCCCCCCCNC(C)C(O)c1ccc2c(c1)CC(C)O2 (stereo not drawn) [No 55] ?
Resp: 350 mg/kg

Req: What would you report for CC(NCCOc1ccccc1)C(O)c1ccc2c(c1)CCCS2 (stereo not drawn) [No 20] ?
Resp: > 4000 mg/kg

Req: What would you report for COCCOCCCNC(C)C(O)c1ccc2c(c1)CCC2 (stereo not drawn) [No 179] ?
Resp: 250 mg/kg

Req: What would you report for CC(NCCOc1ccccc1)C(O)c1ccc2c(c1)SCCS2 (stereo not drawn) [No 104] ?
Resp: > 4000 mg/kg

Req: What would you report for CC(NCCCSc1ccccc1)C(O)c1ccc2c(c1)CCCCS2 (stereo not drawn) [No 39] ?
Resp: > 4000 mg/kg
